Let's look at some binders and their measured Cyno T-cell Binding 0.2 uM (MFI).
system name: T1, cynomolgus monkey CD8A on primary cynomolgus monkey CD8+ T cells (cynomolgus monkey, UniProt P01732 23-235 (human entry))
T1 construct: also called Cyno CD8alpha
T1 sequence (P01732 other isoform, or with tags, fused parts or gaps limits assumed): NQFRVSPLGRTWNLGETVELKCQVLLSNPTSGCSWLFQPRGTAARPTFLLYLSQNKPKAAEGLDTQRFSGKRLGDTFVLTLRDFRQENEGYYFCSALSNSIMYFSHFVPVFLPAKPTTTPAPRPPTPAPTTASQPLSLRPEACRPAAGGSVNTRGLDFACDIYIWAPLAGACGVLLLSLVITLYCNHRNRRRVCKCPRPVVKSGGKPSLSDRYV
test name: flow cytometry, cyno CD8+ T cells, 0.2 uM FN3
assay metric: Cyno T-cell Binding 0.2 uM (MFI)

binder: P282DR9P1359_F5 (designed binder, FN3 domain) LPAPKNLVVSRVTEDSARLSWTAPDAAFDSFQIAYPEWPPPGEAIVLTVPGSERSYDLTGLKPGTEYFVIIQGVKGGVESWPLSAIFTT
assay metric: Cyno T-cell Binding 0.2 uM (MFI)
value measured: 34700

binder: P282DR9P1359_E11 (designed binder, FN3 domain) LPAPKNLVVSRVTEDSARLSWTAPDAAFDSFYISYPEWPPVGEAIVLTVPGSERSYDLTGLKPGTEYWVIIYGVKGGAISTPLSAIFTT
assay metric: Cyno T-cell Binding 0.2 uM (MFI)
value measured: 33100

binder: P282BR9P1357_D2 (designed binder, FN3 domain) LPAPKNLVVSRVTEDSARLSWIKDGHPRHFDSFLIQYQESEKVGEAIVLTVPGSERSYDLTGLKPGTEYTVSIYGVDVVYDRGQLISSNPLSAIFTT
assay metric: Cyno T-cell Binding 0.2 uM (MFI)
value measured: 2520

binder: P282DR9P1359_H5 (designed binder, FN3 domain) LPAPKNLVVSRVTEDSARLSWTAPDAAFDSFNIAYPEALHPGYGEAIVLTVPGSERSYDLTGLKPGTEYFVVIYGVKGGTNSEPLSAIFTT
assay metric: Cyno T-cell Binding 0.2 uM (MFI)
value measured: 500

binder: P282FR9P1361_F7 (designed binder, FN3 domain) LPAPKNLVVSRVTEDSARLSWTAPDAAFDSFPIWYREYATGEAIVLTVPGSERSYDLTGLKPGTEYDVVITGVKGGYPSYPLSAIFTT
assay metric: Cyno T-cell Binding 0.2 uM (MFI)
value measured: 353

binder: P283AR9P1362_A4 (designed binder, FN3 domain) LPAPKNLVVSRVTEDSARLSWIGHDSGFDSFLIQYQESEKVGEAIVLTVPGSERSYDLTGLKPGTEYTVSIYGVDVKYDIDSRPISSNPLSAIFTT
assay metric: Cyno T-cell Binding 0.2 uM (MFI)
value measured: 4400

binder: P283AR9P1362_C12 (designed binder, FN3 domain) LPAPKNLVVSRVTEDSARLSWAKNLHSFDSFLIQYQESEKVGEAIVLTVPGSERSYDLTGLKPGTEYTVSIYGVDVKYDIDSRPISSNPLSAIFTT
assay metric: Cyno T-cell Binding 0.2 uM (MFI)
value measured: 3830

binder: P283AR9P1362_B8 (designed binder, FN3 domain) LPAPKNLVVSRVTEDSARLSWWTSPLPFDSFLIQYQESEKVGEAIVLTVPGSERSYDLTGLKPGTEYTVSIYGVDVKYDIDSRPISSNPLSAIFTT
assay metric: Cyno T-cell Binding 0.2 uM (MFI)
value measured: 2270

binder: P282DR9P1359_C12 (designed binder, FN3 domain) LPAPKNLVVSRVTEDSARLSWTAPDAAFDSFYISYPEWPVPGEAIVLTVPGSERSYDLTGLKPGTEYWVVIYGVKGGALSVPLSAIFTT
assay metric: Cyno T-cell Binding 0.2 uM (MFI)
value measured: 3640

Measured values drawn from patent US20210032312A1 for this set.
